Values from patent US20240124597A1

molecular target: T1, human-CD40-monomer protein (human, UniProt P25942 21-193, limits assumed); assay: SPR, Ab captured on protein A, hCD40 monomer 500 and 50 nM, 1:1 fit; supernatant
T1 construct: Soluble monomer generated in house, used as SPR analyte; also called hCD40; hCD40-monomer
T1 sequence (P25942 21-193 limits assumed): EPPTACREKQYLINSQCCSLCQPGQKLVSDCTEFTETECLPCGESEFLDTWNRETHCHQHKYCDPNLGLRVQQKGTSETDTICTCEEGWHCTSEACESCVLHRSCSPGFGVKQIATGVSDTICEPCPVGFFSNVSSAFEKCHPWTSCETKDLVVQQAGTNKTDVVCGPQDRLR

Binder	Endpoint unit	Kd
Y12XX-hz33 (antibody, human IgG1, kappa, V domains shown, Humanized, IgG1-P238K; supernatant sample) VH: QVQLVQSGAEVKKPGSSVKVSCKASGYAFTSYWMHWVRQRPGQGLEWMGYINPTTGYSAYNQKFKDKATLTADKSTSTAYMELSSLRSEDTAVYYCARWDPRPFAYWGQGTLVTVSS VL: EIVMTQSPATLSVSPGERATLSCKASQDVSTAVAWYQQKPGQAPRLLIYSASYRYTGIPARFSGSGSGTEFTLTISSLQSEDFAVYYCQQHYSTPWTFGGGTKVEIKR	µM	0.011
